All figures here come from patent US20200123233A1.

- studyTarget: T1, FTM-NN protein (membrane anchorless form of the Long fusion protein, 70 kDa) (human respiratory syncytial virus, …, UniProt P12568 26-524)
- T1 construct: domain: membrane anchorless form of the fusion protein
- testSummary: SPR (Biacore), FTM-NN immobilised
pKd: −log10 of the molar value.
propertyName: pKd

- binder: "RSVPMP15B3 (VHH) VHH: EVQLVESGGGLVQPGGSLRLSCAASGLTLDYYALGWFRQAPGKEREGVSCISSSDHSTTYTDSVKGRFTISWDNAKNTLYLQMNSLKPGDTAVYYCAADPALGCYSGSYYPRYDYWGQGTQVTVSS"
  measuredResult: 9.17
- binder: "RSVPMP7B2 (VHH) VHH: EVQLVESGGGLVQAGDSLRLSCAASGRTFSSYAMGWFRQAPGKEREFVAAISWSDGSTYYADSVKGRFTISRDNAKNTVYLQMNSLKPEDTAVYYCAADLTSTNPGSYIYIWAYDYWGQGTQVTVSS"
  measuredResult: 8.96
- binder: "RSVPMP15H8 (VHH) VHH: EVQLVESGGGLVQAGGSLRLSCAASGRSFSNYVLGWFRQAPGKEREFVAAISFRGDSAIGAPSVEGRFTISRDNAKNTGYLQMNSLVPDDTAVYYCGAGTPLNPGAYIYDWSYDYWGRGTQVTVSS"
  measuredResult: 7.80
- binder: "LG191D3 (VHH) VHH: EVQLVESGGGLVQAGGSLRLSCEASGRTYSRYGMGWFRQAPGKEREFVAAVSRLSGPRTVYADSVKGRFTISRDNAENTVYLQMNSLKPEDTAVYTCAAELTNRNSGAYYYAWAYDYWGQGTQVTVSS"
  measuredResult: 8.72
